# Lookup of reported pIC50 keyed by entry
Target: Bile salt export pump (Rattus norvegicus, UniProt O70127)
Sequence (O70127 whole entry): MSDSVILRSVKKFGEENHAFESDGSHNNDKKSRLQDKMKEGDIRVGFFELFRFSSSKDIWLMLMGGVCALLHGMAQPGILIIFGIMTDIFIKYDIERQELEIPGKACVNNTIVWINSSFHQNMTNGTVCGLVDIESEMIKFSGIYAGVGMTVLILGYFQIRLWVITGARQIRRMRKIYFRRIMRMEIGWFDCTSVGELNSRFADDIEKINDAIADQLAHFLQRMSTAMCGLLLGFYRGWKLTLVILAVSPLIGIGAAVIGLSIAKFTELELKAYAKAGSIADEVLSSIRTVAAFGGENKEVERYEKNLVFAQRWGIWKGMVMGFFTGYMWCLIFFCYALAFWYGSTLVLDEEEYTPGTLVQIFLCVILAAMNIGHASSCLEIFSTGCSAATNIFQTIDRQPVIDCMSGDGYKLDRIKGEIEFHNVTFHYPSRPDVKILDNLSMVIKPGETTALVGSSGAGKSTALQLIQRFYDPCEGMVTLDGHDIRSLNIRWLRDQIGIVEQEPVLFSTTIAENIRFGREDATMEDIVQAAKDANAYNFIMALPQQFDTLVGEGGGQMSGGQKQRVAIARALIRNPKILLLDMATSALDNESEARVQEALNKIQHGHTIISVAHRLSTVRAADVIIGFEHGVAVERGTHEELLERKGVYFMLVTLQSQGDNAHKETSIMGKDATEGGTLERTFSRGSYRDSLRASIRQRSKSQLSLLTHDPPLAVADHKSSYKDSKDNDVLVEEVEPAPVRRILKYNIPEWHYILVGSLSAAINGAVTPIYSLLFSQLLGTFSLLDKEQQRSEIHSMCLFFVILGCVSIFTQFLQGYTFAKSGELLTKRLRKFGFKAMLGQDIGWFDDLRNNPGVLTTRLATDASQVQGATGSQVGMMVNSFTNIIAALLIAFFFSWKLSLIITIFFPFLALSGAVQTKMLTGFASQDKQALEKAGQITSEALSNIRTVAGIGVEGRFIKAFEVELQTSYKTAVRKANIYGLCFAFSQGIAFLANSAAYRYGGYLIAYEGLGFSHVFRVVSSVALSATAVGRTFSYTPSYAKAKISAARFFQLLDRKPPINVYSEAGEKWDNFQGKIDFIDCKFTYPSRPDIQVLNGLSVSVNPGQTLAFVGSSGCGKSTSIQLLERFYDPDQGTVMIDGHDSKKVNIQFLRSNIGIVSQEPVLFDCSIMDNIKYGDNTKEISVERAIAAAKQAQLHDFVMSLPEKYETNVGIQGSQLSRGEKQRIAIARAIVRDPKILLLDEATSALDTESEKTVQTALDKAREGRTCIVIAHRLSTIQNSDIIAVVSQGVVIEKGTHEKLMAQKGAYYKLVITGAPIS
Test: Inhibition of Sprague-Dawley rat Bsep expressed in plasma membrane vesicles of Sf21 cells assessed as inhibition of ATP-dependent [3H]taurocholate uptake
pIC50: −log10 of the molar value.
quantity_kind: pIC50

>>> meas_value("CC(C)C(=O)Nc1ccc([N+](=O)[O-])c(C(F)(F)F)c1 [FLUTAMIDE]")
4.10
>>> meas_value("Cc1onc(-c2ccccc2Cl)c1C(=O)N[C@@H]1C(=O)N2[C@@H]1SC(C)(C)[C@@H]2C(=O)O")
3.42
>>> meas_value("CN1CCN(C2=Nc3cc(Cl)ccc3Nc3ccccc32)CC1")
3.71
>>> meas_value("CC(=O)N1CCN(c2ccc(OCC3COC(Cn4ccnc4)(c4ccc(Cl)cc4Cl)O3)cc2)CC1 (stereo unspecified)")
4.81
>>> meas_value("CCC(=O)O[C@H]1[C@H](O[C@@H]2[C@@H](C)[C@H](O[C@H]3C[C@@](C)(OC)[C@@H](O)[C@H](C)O3)[C@@H](C)C(=O)O[C@H](CC)[C@@](C)(O)[C@H](O)[C@@H](C)C(=O)[C@H](C)C[C@@]2(C)O)O[C@H](C)C[C@@H]1N(C)C [ERYTHROMYCIN ESTOLATE]")
4.94
>>> meas_value("Cc1c(C)c2c(c(C)c1O)CCC(C)(COc1ccc(CC3SC(=O)NC3=O)cc1)O2 (stereo unspecified)")
4.97
>>> meas_value("O=C(OCC(O)CO)c1ccccc1Nc1ccnc2cc(Cl)ccc12 (stereo unspecified)")
4.49
>>> meas_value("CCc1ccc(CCOc2ccc(CC3SC(=O)NC3=O)cc2)nc1 (stereo unspecified)")
5.70
>>> meas_value("Cc1onc(-c2c(F)cccc2Cl)c1C(=O)N[C@@H]1C(=O)N2[C@@H]1SC(C)(C)[C@@H]2C(=O)O")
3.37
>>> meas_value("CO[C@H]1/C=C/O[C@@]2(C)Oc3c(C)c(O)c4c(O)c(cc(O)c4c3C2=O)NC(=O)/C(C)=C\\C=C\\[C@H](C)[C@H](O)[C@@H](C)[C@@H](O)[C@@H](C)[C@H](OC(C)=O)[C@@H]1C")
5.51
